tested on: SK-OV-3 ovarian; assay: NCI tumour cell line growth inhibition, 48 h
metric_name: GI50

Summary for this compound, Clc1ccc(C(Cn2ccnc2)OCc2ccsc2Cl)c(Cl)c1 (centres undefined) : GI50 is 5.08 µM

What the record says about COc1cccc(C2=C(c3cn(C)c4ccc(Cl)cc34)C(=O)NC2=O)c1 : GI50 is 7.29 µM

Record summary for c1cc[n+](C2c3ccccc3C([n+]3ccccc3)c3ccccc32)cc1 (centres undefined) : reported GI50 = 52.5 µM

The recorded GI50 for C1C[OH+]CC[OH+]CC[OH+]CC[OH+]CC[OH+]CC[OH+]1.[Cl-].[V] is 45.9 µM

Short answer for CC1=C(C(=O)Nc2ccc(F)c(Cl)c2)C(c2cccc(Cl)c2)NC(=S)N1 (centres undefined) : GI50 was 5.26 µM

Looking up CC[N+](CC)=c1cc2oc3cc(N(C)C)ccc3nc-2cc1C , I found its GI50 recorded as 4.45 µM

For O=C1Nc2ccccc2/C1=C\c1c(-c2ccccc2)nc2ccccn12 the compound record lists GI50 as 1.95 µM

GI50 reported for this compound COc1ccc2c(c1)/C(=N/OC(C)=O)c1c-2c(Nc2cccc(/C(C)=N/OC(C)=O)c2)nc2ccccc12 : > 100 µM

// CC[C@H](C)[C@H](NC(=O)c1ccccn1)C(=O)N(C)[C@H](C[C@@H](OC(C)=O)c1nc(C(=O)N[C@@H](Cc2ccccc2)C[C@H](C)C(=O)OC)cs1)C(C)C : GI50 value = 33.4 µM

====

tested on: SW-620 colon; assay: NCI tumour cell line growth inhibition, 48 h; in the data active = GI50 below about 0.43 µM; inactive = the rest
Where a SMILES comes first, the peptide text is derived from it. [ ]: non-standard residue; d: D form. The star is where a group is joined. Dolaproine = CO[C@@H]([C@@H]1CCCN1)[C@@H](C)C(=O)O; Dil = CC[C@H](C)[C@H](NC)[C@@H](CC(=O)O)OC; X2 = C[C@@H](N*)[C@@H](O)c1ccccc1; NMeV = CN[C@H](C(=O)O)C(C)C
Thanks in advance; please answer with one of these: 1.0 (active), 0.0 (inactive)

For Oc1c(Br)cc(Br)c2ccc(Cn3cc(-c4ccc(C(F)(F)F)cc4)nn3)nc12 , which call appears in the assay record? 0.0

Would you mind telling me which call this test gave ClCc1ccccc1Cn1cnc2c(Cl)nc(Cl)nc21 ? 1.0

Dear all, I need the recorded test outcome for CC[C@H](C)[C@@H]([C@@H](CC(=O)N1CCC[C@H]1[C@H](OC)[C@@H](C)C(=O)N[C@H](C)[C@@H](O)c1ccccc1)OC)N(C)C(=O)[C@@H](NC(=O)[C@@H](NC)C(C)C)C(C)C (H-[NMeV]V[Dil][Dolaproine]-X2) , thank you. 1.0

Each compound tested received a call. Report the one for CCCC[C@H](NC(=O)[C@H]1CCCCN1C)C(=O)N(C)[C@H](C[C@@H](OC(C)=O)c1nc(C(=O)N[C@@H](Cc2ccccc2)C[C@H](C)C(=O)OCC)cs1)C(C)C . 1.0

Test call for this compound, please: CC1=C(C(=O)Nc2ccc(F)c(Cl)c2)C(c2cccc(Cl)c2)NC(=S)N1 (stereo not drawn) 0.0

What call does the record list for COc1ccc(-c2cn[nH]c2-c2cc(OC)c(OC)c(OC)c2)cc1OCc1ccccc1 ? 0.0

For this compound, state the assay outcome: O=C1/C=C/[C@@H](O)[C@@H]2C[C@@H](O)C[C@H]2/C=C/CCC[C@H](CCOCc2ccccc2)O1 1.0

Test call, this compound: NC(N)=NN=C(c1ccccc1)c1ccccc1 0.0

====

tested on: HCT-116 colon; assay: NCI tumour cell line growth inhibition, 48 h
metric_name: TGI

The recorded TGI for entry O=C(c1ccc(Cl)cc1)N(C(=S)OC12CC3CC(CC(C3)C1)C2)c1ccccc1 equals > 100 µM

The reported TGI of the molecule C=CC(=O)C#CC#CC/C=C\CCCCCCC was > 20.6 µM

The recorded TGI for O=C(/C=C/c1ccc2ccccc2c1)NCc1ccc(C(=O)NCc2ccccc2)cc1 is > 100 µM

Entry Clc1ccc2c(N3CCN(c4ccnc(NC5CCCCC5)n4)CC3)ccnc2c1 , TGI reported as 2.8 µM

Item: CCOC(=O)C(COS(C)(=O)=O)(COS(C)(=O)=O)C(=O)OCC | TGI: > 100 µM

Per the records, this molecule ( COc1cccc2[nH]c3c4c(c5c(c3c12)C(=O)N(CN1CCN(C)CC1)C5=O)CCC4 ) has TGI equal to 45.7 µM

Looking up C=C1CC2(CC(c3ccccc3OC)OC(c3ccccc3OC)C2)OC1=O (stereo not given) , I found its TGI recorded as 3.3 µM

// sample O=C(CC1(O)C(=O)Nc2c(Cl)cc(Cl)cc21)c1ccc(Br)cc1 (stereo not given) , its TGI was 34.7 µM

TGI reported for this molecule CC#CC(O)(C(=O)OC1CCC2CCC1N2C)C1CCCC1 (stereo not given) : > 100 µM

For O=C(/C=C/c1ccc(O)c(O)c1)OCCCOC(=O)/C=C/c1ccc(O)c(O)c1 the molecule record lists TGI as > 100 µM

====

test system: ACHN renal; assay: NCI tumour cell line growth inhibition, 48 h
metric_name: TGI (µM)
Give the value in µM but do not write µM after it.

Kindly note the recorded TGI for O=S1c2ccccc2N=C(c2cccc3ccccc23)CC1c1cccc2ccccc12 (configuration not stated) , which is 56.4

TGI measured on COC1=C(OC)C(=O)C(CCCCCCCCCC[P+](c2ccccc2)(c2ccccc2)c2ccccc2)=C(C)C1=O = 3.72

// CN(C)CCn1c(=O)c2ccc(NCCCN(C)CCCNc3ccc4c(=O)n(CCN(C)C)c(=O)n5c6ccccc6c(=O)c3c45)c3c(=O)c4ccccc4n(c1=O)c23 : TGI value = 0.949

For CC(C)(C)COC1C2(OCCO2)C2CCC1(C)C2(C)C (configuration not stated) the molecule record lists TGI as 42.1

CC1=C(C(=O)Nc2ccc(F)c(Cl)c2)C(c2cccc(Cl)c2)NC(=S)N1 (configuration not stated) yielded TGI of 14.4

Looking up C[C@]12CC[C@@H]3c4cc(Br)c(O)c(Br)c4CC[C@H]3[C@@H]1CC(Br)C2=O (some centres not stated) , I see its TGI listed as 21.2

====

tested on: M19-MEL melanoma; experiment: NCI tumour cell line growth inhibition, 48 h
metric_name: TGI (µM)
Note: unit µM is implicit; provide only the numeric part.

So the reported TGI for CC1CC[C@@]23CCC4(C)[C@@](C=CC5[C@@]6(C)CCC(=O)C(C)(C)C6CC[C@]54C)(OC2=O)[C@@H]3[C@H]1C (stereo not given in full) , on M19-MEL melanoma, turned out to be 68.5

Item CCC[CH2][Sn]1([CH2]CCC)[O]CC(CN2CCCCC2)[O]1 (stereo not given) was tested on M19-MEL melanoma; the reported TGI is 1.73

====

test system: HT29 colon; assay: NCI tumour cell line growth inhibition, 48 h
Where a SMILES comes first, the peptide text is derived from it. [ ]: non-standard residue; d: D form.
Consider the following compounds; for each one, report its TGI.

# TGI (compound: Cc1nc2ccccc2nc1NNc1ccccc1 ) is 18.7 µM

According to the records, this compound NC(N)=NCCC[C@H]1NC(=O)[C@@H](CCC(=O)O)NC(=O)[C@@H](CC(=O)O)NC(=O)[C@@H](CCC(=O)O)NC(=O)[C@H](Cc2c[nH]c3ccccc23)NC1=O (cyclo(W[dE][dD][dE][dR])) displays TGI of > 7.5 µM

Recorded result, Nc1ncnc2c1ncc(=O)n2C1CC(O)C(CO)O1 (stereo not given) , TGI: > 100 µM

GET /value?item= Clc1ccc(COc2ccccc2/C=N/c2c(-c3ccco3)nc3ccccn23)c(Cl)c1 &field=TGI returns > 100 µM

Sample O=C1C=CC(O)(C#CCO)C=C1 ; TGI observed: 29.7 µM

TGI recorded for this compound, Cc1ncc([N+](=O)[O-])n1CCn1ccnc1[N+](=O)[O-] , is > 100 µM

Briefly, TGI measured for CCOC(=O)[C@H]1O[C@@H]1C(=O)NC(CC(C)C)C(=O)NCCC(C)C (stereo not given in full) : > 100 µM

The value of TGI measured for the compound O=c1[nH]cnc2c1sc(=S)n2-c1ccccc1 turned out to be > 100 µM

For this compound ( CN(CCCNCc1ccccn1)Cc1ccccc1O ), measured TGI is 94.4 µM

Reported TGI for COC1=CC(=O)N(C(=O)C2CSC(C(CO)NC(=O)c3csc(/C=N/O)n3)=N2)C1 (stereo not given) was > 100 µM

====

system: DU-145 prostate; test: NCI tumour cell line growth inhibition, 48 h; in the data active = GI50 below about 0.43 µM; inactive = the rest
Respond only with the outcome that fits, drawn from active, inactive

Which outcome did this test record for the molecule COc1cc(Nc2ccnc(NCCNc3ccnc4cc(Cl)ccc34)n2)cc(OC)c1 ? inactive

Assay result, entry O=C(Nc1ncc(Cc2ccccc2)s1)c1sc2ccccc2c1Cl — outcome? inactive

Outcome? COc1ccc2[nH]c3c(C)c4ccncc4c(C)c3c2c1 active

Hi team, can someone confirm the assay call for NC(N)=NN=C(c1ccccc1)c1ccccc1 ? inactive

What is the recorded call for this molecule in the test? Nc1ccc(S(=O)(=O)c2ccc(N)cc2)cc1 inactive

What classification did CN[C@@H](C)C(=O)N[C@H]1CCS[C@H]2CC(C)(C)[C@@H](C(=O)N[C@H]3c4ccccc4C[C@H]3OCC#CC#CCO[C@@H]3Cc4ccccc4[C@@H]3NC(=O)[C@H]3N4C(=O)[C@@H](NC(=O)[C@H](C)NC)CCS[C@H]4CC3(C)C)N2C1=O end up with in this test? inactive

Just curious, what result did CSc1nc(-c2cc3ccccc3o2)cc(-c2ccc(Cl)cc2)c1C#N get here? inactive
